# TESTED ON: UniProtKB O00206
# ASSAY: Intrinsic activity at human recombinant TLR4 expressed in HEK293 cells by SEAP reporter assay relative to LPS
# Assay type: cell-based
PROPERTY LABEL: Intrinsic activity

MOLECULE: COc1ccc([C@H]2[C@H]3c4c(c5ccccc5[nH]c4=O)OC(C)(C)[C@H]3[C@@H]2C(C)C)cc1OCCO
RECORDED VALUE: 0.46

MOLECULE: COc1ccc([C@H]2[C@H]3c4c(c5ccccc5[nH]c4=O)OC(C)(C)[C@H]3[C@@H]2C(C)C)cc1OC
RECORDED VALUE: 0.9

MOLECULE: COc1ccc([C@H]2[C@H]3c4c(c5ccccc5[nH]c4=O)OC(C)(C)[C@H]3[C@@H]2C(C)C)cc1Cl
RECORDED VALUE: 0.47

MOLECULE: COc1cc([C@H]2[C@H]3c4c(c5ccccc5n(C)c4=O)OC(C)(C)[C@H]3[C@@H]2C2CC2)cc(OC)c1OC
RECORDED VALUE: 0.81

MOLECULE: COc1cc(C2[C@@H](COC(C)=O)C3[C@@H]2c2c(c4ccccc4[nH]c2=O)OC3(C)C)cc(OC)c1OC (single isomer, unassigned)
RECORDED VALUE: 0.1

MOLECULE: COc1cc([C@H]2[C@H]3c4c(c5ccccc5[nH]c4=O)OC(C)(C)[C@H]3[C@@H]2C2CC2)cc(OC)c1OC
RECORDED VALUE: 0.82

MOLECULE: CCC[C@]1(c2cc(OC)cc(OC)c2)O[C@H]2c3c(c4ccccc4[nH]c3=O)OC(C)(C)[C@H]2O1
RECORDED VALUE: 0.7

---

# TESTED ON: Toll-like receptor 4 (Homo sapiens, UniProt O00206)
# Sequence (O00206 whole entry): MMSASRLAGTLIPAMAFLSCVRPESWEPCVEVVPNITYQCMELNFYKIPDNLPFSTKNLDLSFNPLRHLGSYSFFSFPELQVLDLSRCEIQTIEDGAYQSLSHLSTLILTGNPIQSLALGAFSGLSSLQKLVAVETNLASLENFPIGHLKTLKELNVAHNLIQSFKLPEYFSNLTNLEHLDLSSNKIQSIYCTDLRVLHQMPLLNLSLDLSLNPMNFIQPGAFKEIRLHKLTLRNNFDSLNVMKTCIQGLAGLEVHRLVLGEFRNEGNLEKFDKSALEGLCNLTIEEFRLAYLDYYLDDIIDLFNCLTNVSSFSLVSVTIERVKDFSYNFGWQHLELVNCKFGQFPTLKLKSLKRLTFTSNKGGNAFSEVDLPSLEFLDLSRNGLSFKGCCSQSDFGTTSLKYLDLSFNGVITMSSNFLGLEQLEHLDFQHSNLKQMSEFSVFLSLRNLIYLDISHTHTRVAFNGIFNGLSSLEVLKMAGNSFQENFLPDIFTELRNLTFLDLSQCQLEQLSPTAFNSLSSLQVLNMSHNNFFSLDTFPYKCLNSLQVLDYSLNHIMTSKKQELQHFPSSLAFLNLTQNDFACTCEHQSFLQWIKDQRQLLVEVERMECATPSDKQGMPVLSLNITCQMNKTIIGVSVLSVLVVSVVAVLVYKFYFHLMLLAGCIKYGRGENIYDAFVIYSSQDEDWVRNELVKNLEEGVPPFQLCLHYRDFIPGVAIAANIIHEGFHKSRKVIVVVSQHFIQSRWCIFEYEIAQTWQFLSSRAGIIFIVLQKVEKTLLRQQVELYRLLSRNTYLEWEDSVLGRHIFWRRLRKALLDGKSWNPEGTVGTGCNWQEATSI
# ASSAY: Agonist activity at human recombinant TLR4 expressed in HEK293 cells by SEAP reporter assay
# Type: cell-based
pEC50: −log10 of the molar value.
molecules and their reported pEC50
PROPERTY LABEL: pEC50

MOLECULE: COc1ccc([C@H]2[C@H]3c4c(c5ccccc5[nH]c4=O)OC(C)(C)[C@H]3[C@@H]2C(C)C)cc1CCl
PROPERTY LABEL: pEC50
VALUE MODIFIER: =
RECORDED VALUE: 5.70
--
MOLECULE: COc1cc([C@H]2[C@H]3c4c(c5ccccc5[nH]c4=O)OC(C)(C)[C@H]3[C@@H]2C2CC2)cc(OC)c1OC
PROPERTY LABEL: pEC50
VALUE MODIFIER: =
RECORDED VALUE: 6.20
--
MOLECULE: COc1ccc([C@H]2[C@H]3c4c(c5ccccc5[nH]c4=O)OC(C)(C)[C@H]3[C@@H]2C(C)C)cc1OCCO
PROPERTY LABEL: pEC50
VALUE MODIFIER: =
RECORDED VALUE: 6.30
--
MOLECULE: COc1cc(C2[C@@H](COC(C)=O)C3[C@@H]2c2c(c4ccccc4[nH]c2=O)OC3(C)C)cc(OC)c1OC (single isomer, unassigned)
PROPERTY LABEL: pEC50
VALUE MODIFIER: =
RECORDED VALUE: 5.30
--
MOLECULE: COc1ccc([C@@H]2[C@@H](C(=O)C3CC3)[C@H]3[C@@H]2c2c(c4ccccc4[nH]c2=O)OC3(C)C)cc1OC
PROPERTY LABEL: pEC50
VALUE MODIFIER: =
RECORDED VALUE: 5.10
--
MOLECULE: COc1cc([C@H]2[C@H]3c4c(c5ccccc5n(C)c4=O)OC(C)(C)[C@H]3[C@@H]2C2CCCC2)cc(OC)c1OC
PROPERTY LABEL: pEC50
VALUE MODIFIER: =
RECORDED VALUE: 5.60
--
MOLECULE: COc1cc([C@@H]2[C@@H](C)[C@H]3[C@@H]2c2c(c4ccccc4[nH]c2=O)OC3(C)C)ccc1O
PROPERTY LABEL: pEC50
VALUE MODIFIER: <
RECORDED VALUE: 5.00
--
MOLECULE: COc1ccc([C@H]2[C@H]3c4c(c5ccccc5[nH]c4=O)OC(C)(C)[C@H]3[C@@H]2C2CC2)cc1OC
PROPERTY LABEL: pEC50
VALUE MODIFIER: =
RECORDED VALUE: 6.20
--
MOLECULE: CC[C@@H]1[C@@H](c2ccc(OC)c(OC)c2)[C@H]2c3c(c4cc(C)ccc4n(C)c3=O)OC(C)(C)[C@@H]12
PROPERTY LABEL: pEC50
VALUE MODIFIER: =
RECORDED VALUE: 5.51
--
MOLECULE: CC[C@@H]1[C@@H](c2cc(OC)c(OC)c(OC)c2)[C@H]2c3c(c4ccccc4[nH]c3=O)OC(C)(C)[C@@H]12
PROPERTY LABEL: pEC50
VALUE MODIFIER: =
RECORDED VALUE: 6.10
--
MOLECULE: COc1ccc([C@@H]2[C@@H](C)[C@H]3[C@@H]2c2c(c4ccccc4[nH]c2=O)OC3(C)C)cc1
PROPERTY LABEL: pEC50
VALUE MODIFIER: <
RECORDED VALUE: 5.00
--
MOLECULE: COc1ccc([C@@H]2[C@@H](C(C)=O)[C@H]3[C@@H]2c2c(c4ccccc4[nH]c2=O)OC3(C)C)cc1OC
PROPERTY LABEL: pEC50
VALUE MODIFIER: =
RECORDED VALUE: 5.00
--
MOLECULE: COc1ccc([C@H]2[C@H]3c4c(c5ccccc5[nH]c4=O)OC(C)(C)[C@H]3[C@@H]2C2CC2)cc1OCCCO
PROPERTY LABEL: pEC50
VALUE MODIFIER: =
RECORDED VALUE: 6.10
--
MOLECULE: COc1ccc([C@H]2[C@H]3c4c(c5ccccc5n(C)c4=O)OC(C)(C)[C@H]3[C@@H]2C(C)C)cc1Cl
PROPERTY LABEL: pEC50
VALUE MODIFIER: =
RECORDED VALUE: 5.51
--
MOLECULE: COc1ccc([C@@H]2[C@@H](C)[C@H]3[C@@H]2c2c(c4ccccc4[nH]c2=O)OC3(C)C)cc1Br
PROPERTY LABEL: pEC50
VALUE MODIFIER: =
RECORDED VALUE: 5.41

---

# ASSAY: Cytotoxicity against human PBMC by WST-1 cell proliferation assay
# Assay type: cell-based
# MEASUREMENT SETUP: PBMC (peripheral blood mononuclear cells)

COMPOUND STRING: COc1cc([C@@H]2[C@@H](C)[C@H]3[C@@H]2c2c(c4ccccc4[nH]c2=O)OC3(C)C)cc(OC)c1OC
CC50: > 33 µM

---

molecules and their reported pEC50
# TESTED ON: Toll-like receptor 4 (Homo sapiens)
# ASSAY: Agonist activity at human recombinant TLR4 expressed in HEK293 cells by SEAP reporter assay
pEC50: −log10 of the molar value.
PROPERTY LABEL: pEC50

COMPOUND STRING: COc1ccc([C@@H]2[C@@H](C)[C@H]3[C@@H]2c2c(c4ccccc4n(C)c2=O)OC3(C)C)cc1OC
VALUE MODIFIER: =
RECORDED VALUE: 5.60

COMPOUND STRING: COc1cc(OC)cc([C@@H]2[C@@H](C)[C@H]3[C@@H]2c2c(c4ccccc4[nH]c2=O)OC3(C)C)c1
VALUE MODIFIER: =
RECORDED VALUE: 5.51

COMPOUND STRING: COc1ccc([C@H]2[C@H]3c4c(c5ccccc5[nH]c4=O)OC(C)(C)[C@H]3[C@@H]2C(C)C)cc1Cl
VALUE MODIFIER: =
RECORDED VALUE: 5.70

COMPOUND STRING: COc1cc([C@@H]2[C@@H](C)[C@H]3[C@@H]2c2c(c4ccccc4[nH]c2=O)OC3(C)C)cc(OC)c1OC
VALUE MODIFIER: =
RECORDED VALUE: 5.41

COMPOUND STRING: COc1cc([C@H]2[C@H]3c4c(c5cc(C)ccc5n(C)c4=O)OC(C)(C)[C@H]3[C@@H]2C(C)C)cc(OC)c1OC
VALUE MODIFIER: =
RECORDED VALUE: 5.10

COMPOUND STRING: COc1ccc([C@H]2[C@H]3c4c(c5ccccc5[nH]c4=O)OC(C)(C)[C@H]3[C@@H]2C2CC2)cc1OCCCN1CCOCC1
VALUE MODIFIER: =
RECORDED VALUE: 5.41

COMPOUND STRING: CCC[C@]1(c2ccc(OC)c(OC)c2)O[C@H]2c3c(c4ccccc4[nH]c3=O)OC(C)(C)[C@H]2O1
VALUE MODIFIER: =
RECORDED VALUE: 4.80

COMPOUND STRING: COc1ccc2[nH]c(=O)c3c(c2c1)OC(C)(C)[C@@H]1[C@H]3[C@H](c2ccc(OC)c(OC)c2)[C@H]1C(C)C
VALUE MODIFIER: <
RECORDED VALUE: 5.00

COMPOUND STRING: COc1cc([C@H]2[C@H]3c4c(c5ccccc5n(C)c4=O)OC(C)(C)[C@H]3[C@@H]2C2CC2)cc(OC)c1OC
VALUE MODIFIER: =
RECORDED VALUE: 6.10

COMPOUND STRING: CC[C@@H]1[C@@H](c2ccc(OC)c(F)c2)[C@H]2c3c(c4ccccc4n(C)c3=O)OC(C)(C)[C@@H]12
VALUE MODIFIER: =
RECORDED VALUE: 5.51

COMPOUND STRING: COc1ccc([C@H]2[C@H]3c4c(c5ccccc5[nH]c4=O)OC(C)(C)[C@H]3[C@@H]2C2CCCC2)cc1OC
VALUE MODIFIER: =
RECORDED VALUE: 6.41

COMPOUND STRING: CC[C@@H]1[C@@H](c2cc(OC)c(OC)c(OC)c2)[C@H]2c3c(c4cc(C)ccc4n(C)c3=O)OC(C)(C)[C@@H]12
VALUE MODIFIER: =
RECORDED VALUE: 5.51

COMPOUND STRING: COc1cc([C@H]2[C@H]3c4c(c5ccccc5[nH]c4=O)OC(C)(C)[C@H]3[C@@H]2C(C)C)cc(OC)c1OC
VALUE MODIFIER: =
RECORDED VALUE: 6.10

COMPOUND STRING: CCCC[C@@H]1[C@@H](c2ccc(OC)c(OC)c2)[C@H]2c3c(c4ccccc4[nH]c3=O)OC(C)(C)[C@@H]12
VALUE MODIFIER: =
RECORDED VALUE: 5.92

COMPOUND STRING: COc1ccc([C@H]2[C@H]3c4c(c5ccccc5n(C)c4=O)OC(C)(C)[C@H]3[C@@H]2C(C)C)cc1OC(C)=O
VALUE MODIFIER: =
RECORDED VALUE: 5.51

COMPOUND STRING: COc1ccc([C@H]2[C@H]3c4c(c5ccccc5[nH]c4=O)OC(C)(C)[C@H]3[C@@H]2C(C)C)cc1OC
VALUE MODIFIER: =
RECORDED VALUE: 6.00

COMPOUND STRING: COc1ccc([C@@H]2[C@@H](C)[C@H]3[C@@H]2c2c(c4ccccc4[nH]c2=O)OC3(C)C)c(Cl)c1OC
VALUE MODIFIER: =
RECORDED VALUE: 5.51

COMPOUND STRING: COc1ccc([C@H]2[C@H]3c4c(c5ccccc5[nH]c4=O)OC(C)(C)[C@H]3[C@@H]2C(C)C)cc1OC(=O)CCC(=O)O
VALUE MODIFIER: =
RECORDED VALUE: 5.20

COMPOUND STRING: CCCC[C@@H]1[C@@H](c2cc(OC)c(OC)c(OC)c2)[C@H]2c3c(c4ccccc4[nH]c3=O)OC(C)(C)[C@@H]12
VALUE MODIFIER: =
RECORDED VALUE: 5.70

COMPOUND STRING: COc1ccc([C@@H]2[C@@H](C)[C@H]3[C@@H]2c2c(c4ccccc4[nH]c2=O)OC3(C)C)c(OC)c1OC
VALUE MODIFIER: <
RECORDED VALUE: 5.00

COMPOUND STRING: CC[C@@H]1[C@@H](c2ccc(OC)c(OC)c2)[C@H]2c3c(c4ccccc4[nH]c3=O)OC(C)(C)[C@@H]12
VALUE MODIFIER: =
RECORDED VALUE: 5.92

COMPOUND STRING: CC[C@@H]1[C@@H](c2ccc(OC)c(OC)c2)[C@H]2c3c(c4ccccc4n(C)c3=O)OC(C)(C)[C@@H]12
VALUE MODIFIER: =
RECORDED VALUE: 5.70

COMPOUND STRING: COc1ccc([C@H]2[C@H]3c4c(c5ccccc5[nH]c4=O)OC(C)(C)[C@H]3[C@@H]2C(C)C)cc1OC(C)=O
VALUE MODIFIER: <
RECORDED VALUE: 5.00

COMPOUND STRING: CCOc1ccc([C@H]2[C@H]3c4c(c5ccccc5[nH]c4=O)OC(C)(C)[C@H]3[C@@H]2C(C)C)cc1OC
VALUE MODIFIER: =
RECORDED VALUE: 5.41

COMPOUND STRING: COc1ccc2[nH]c(=O)c3c(c2c1)OC(C)(C)[C@H]1[C@H](C)[C@@H](c2cc(OC)c(OC)c(OC)c2)[C@@H]31
VALUE MODIFIER: <
RECORDED VALUE: 5.00

The origin of these recorded values is ChEMBL document CHEMBL3259572.
